Target: human α-thrombin (Haematologic Technologies) (human), P00734
Assay: thrombin inhibition; sulfated at Y33 and Y36
Conditions: chains peptide; modification not given
EXPERIMENTAL READOUT: Ki (nM)
Enter your answer as a number in nM; do not include the unit.

What value of Ki has been recorded for this entry: SEQ ID No:2 (MDL-1) DS (sulfated at Y33 and Y36) (peptide) YPERDSAKDGNEEQERALPVNVQERGEVADADYDDYDEEGTTPTVDPTAQTARPRLQGNQS 2.06
